test: Plasma migalastat concentration in two Fabry patients with renal impairment (Example 3); format: in vivo, human; settings: human, plasma, Migalastat Conc 6 months later, Fabry patient P1, moderate renal impairment; 3 Hrs Post
parameter: concentration at 3 h

[
  {
    "itemSmiles": "OC[C@H]1NC[C@H](O)[C@@H](O)[C@H]1O",
    "result": "2160 ng/mL"
  }
]

* * *

assay: Single-dose renal impairment PK and safety study in non-Fabry subjects (Example 1); type: in vivo, human; conditions: human, plasma, oral, 150 mg, single 150 mg migalastat HCl, non-Fabry; Normal (N = 8)
parameter: AUC(0-inf) (ng·h/mL)

[
  {
    "compound": "OC[C@H]1NC[C@H](O)[C@@H](O)[C@H]1O [migalastat]",
    "numericReadout": 12400
  }
]

Recorded values, source patent US20210379035A1.
